test system: umbrella sedge (Cyperus difformis); assay: Test B flooded paddy test; type: in vivo; conditions: Flood, 31 g ai/ha; scale 0 to 100 (0 no effect, 100 complete control)
measured metric: Sedge, Umbrella plant response rating

>>> experimental_result("CCc1ccc(-n2c(-c3cccc(Br)c3)ncc(C(=O)C3=C(O)CCCC3=O)c2=O)cc1")
75
>>> experimental_result("CCCc1ncc(C(=O)C2=C(O)CCCC2=O)c(=O)n1CCC")
0
>>> experimental_result("COCCOCCn1c(-c2ccccc2)ncc(C(=O)C2=C(O)CCCC2=O)c1=O")
75
>>> experimental_result("CCCn1c(-c2cccc(OC)c2)ncc(C(=O)C2=C(O)CCCC2=O)c1=O")
40
